biological target: Glutamate receptor ionotropic, NMDA 1 (Rattus norvegicus) (UniProt P35439); assay: Percent Inhibition by displacing [3H]glycine of N-methyl-D-aspartate glutamate receptor 1 in rat cortical membranes; assay type: cell membranes; parameters: concentration or dose not given beside the values; conditions: Membrane; concentration not given here
In this section we review reported inhibition values for a set of compounds.
metric-name: inhibition (%)

CCOC(=O)c1cc2n(n1)C(C(=O)O)Nc1cc(Cl)ccc1-2 (stereo not given)	5
O=C(O)c1cc2n(n1)C(C(=O)O)Nc1ccccc1-2 (stereo not given)	35
CCOC(=O)c1cc2c3cc(N)ccc3nc(O)n2n1	30
CCOC(=O)c1cc2c3cc([N+](=O)[O-])ccc3nc(O)n2n1	15
COC(=O)C1=NN2C(=O)Nc3ccccc3C2C1 (stereo not given)	40
CCOC(=O)c1cc2c3cc(N)c(Cl)cc3nc(O)n2n1	40
O=C(O)c1cc2c3cc([N+](=O)[O-])ccc3nc(O)n2n1	35
O=C(O)c1cc2n(n1)C(C(=O)O)Nc1cc(Cl)ccc1-2 (stereo not given)	25
CCOC(=O)c1cc2n(n1)C(C(=O)O)Nc1ccccc1-2 (stereo not given)	15
CCOC(=O)c1cc2c3cc(-n4cnnc4)c(Cl)cc3nc(O)n2n1	18

----------
A collection of molecules and their measured pIC50
molecular target: Glutamate receptor ionotropic, kainate; assay: Inhibition of specific binding […] by displacing [3H]KA, from specific binding sites of Ionotropic glutamate receptor ionotropic kainate in rat cortical membranes; assay type: cell membranes, Membrane
pIC50: −log10 of the molar value.
metric-name: pIC50

O=C(O)c1cc2c3cc([N+](=O)[O-])c(Cl)cc3[nH]c(=O)n2n1	4.64
O=C(O)c1cc2c3ccc(Cl)cc3nc(O)n2n1	4.22
O=Cc1ccn(-c2cc3c(cc2Cl)nc(O)n2nc(C(=O)O)cc32)c1	5.26
O=C(O)c1cc2c3cc(Cl)c(Cl)cc3[nH]c(=O)n2n1	4.39
O=C(O)C1=NN2C(=O)Nc3ccccc3C2C1 (stereo not given)	4.71

----------
target: Glutamate receptor ionotropic, NMDA 1 (Rattus norvegicus, UniProt P35439); assay: Displacement of [3H]glycine from N-methyl-D-aspartate glutamate receptor 1 in rat cortical membranes; assay type: cell membranes, Membrane
metric-name: Ki (nM)

O=C(O)C1=NN2C(=O)Nc3ccccc3C2C1 (stereo unspecified)	2000
CCOC(=O)c1cc2c3cc([N+](=O)[O-])c(Cl)cc3[nH]c(=O)n2n1	10600
O=C(O)c1cc2c3ccc(Cl)cc3nc(O)n2n1	480
COC(=O)c1cc2c3cc(Cl)c(Cl)cc3nc(O)n2n1	1300
O=C(O)C1=NN2C(=O)Nc3cc(Cl)ccc3C2C1 (stereo unspecified)	240
COC(=O)C1=NN2C(=O)Nc3cc(Cl)c(Cl)cc3C2C1 (stereo unspecified)	4000
O=C(O)c1cc2c3cc(Cl)c(Cl)cc3[nH]c(=O)n2n1	160
CCOC(=O)c1cc2c3ccc(Cl)cc3[nH]c(=O)n2n1	26500
CCOC(=O)c1cc2c3ccccc3[nH]c(=O)n2n1	33300
COC(=O)C1=NN2C(=O)Nc3cc(Cl)ccc3C2C1 (stereo unspecified)	10600
O=C(O)c1cc2c3ccccc3nc(O)n2n1	1410

----------
target: Glutamate receptor ionotropic, AMPA (Rattus norvegicus) (UniProt P19491+P19492+P19493+P19490); experiment: Percent Inhibition by displacing [3H]AMPA from Ionotropic glutamate receptor AMPA specific binding sites in rat cortical membranes; assay type: cell membranes; set-up: concentration or dose not given beside the values; conditions: concentration not given here
metric-name: inhibition (%)

CCOC(=O)c1cc2c3cc(N)ccc3nc(O)n2n1	27
CCOC(=O)c1cc2n(n1)C(C(=O)O)Nc1cc(Cl)ccc1-2 (stereo unspecified)	6
COC(=O)C1=NN2C(=O)Nc3ccccc3C2C1 (stereo unspecified)	29
CCOC(=O)c1cc2n(n1)C(C(=O)O)Nc1ccccc1-2 (stereo unspecified)	12
CCOC(=O)c1cc2c3cc([N+](=O)[O-])ccc3nc(O)n2n1	27
O=C(O)c1cc2n(n1)C(C(=O)O)Nc1cc(Cl)ccc1-2 (stereo unspecified)	7

----------
// reported IC50 for each item listed
organism: Mus musculus; experiment: Concentration that inhibits by 50% depolarization induced by 5M NMDA; assay type: functional
metric-name: IC50 (µM)

O=Cc1ccn(-c2cc3c(cc2Cl)nc(O)n2nc(C(=O)O)cc32)c1	25
O=C(O)c1cc2c3cc(-n4cnnc4)c(Cl)cc3[nH]c(=O)n2n1	20

----------
target: Glutamate receptor ionotropic, AMPA (Rattus norvegicus, UniProt P19490+P19491+P19492+P19493); assay: Inhibition by displacing [3H]AMPA from Ionotropic glutamate receptor AMPA specific binding sites in rat cortical membranes; assay type: cell membranes
metric-name: Ki (nM)

CCOC(=O)c1cc2c3cc(-n4ccc(C=O)c4)c(Cl)cc3nc(O)n2n1	1400
O=Cc1ccn(-c2cc3c(cc2Cl)nc(O)n2nc(C(=O)O)cc32)c1	270

----------
target: Glutamate receptor ionotropic, kainate (Rattus norvegicus) (UniProt P22756+Q01812+P42260+P42264+Q63273); assay: Percent Inhibition of specific [3H]KA binding to Ionotropic glutamate receptor in rat cortical membranes.; assay type: cell membranes; set-up: concentration or dose not given beside the values; conditions: Membrane; concentration not given here
# key: entry, value: inhibition
metric-name: inhibition

CCOC(=O)c1cc2c3cc([N+](=O)[O-])c(Cl)cc3nc(O)n2n1	23%
O=C(O)C1=NN2C(=O)Nc3cc(Cl)c(Cl)cc3C2C1 (stereo unspecified)	17%
CCOC(=O)c1cc2c3ccc(Cl)cc3nc(O)n2n1	15%
O=C(O)c1cc2c3cc([N+](=O)[O-])ccc3nc(O)n2n1	24%
COC(=O)C1=NN2C(=O)Nc3ccccc3C2C1 (stereo unspecified)	0%
O=C(O)c1cc2n(n1)C(C(=O)O)Nc1cc(Cl)ccc1-2 (stereo unspecified)	13%

----------
biological target: Glutamate receptor ionotropic, NMDA 1 (Rattus norvegicus); assay: Inhibition by displacing [3H]-Glycine of N-methyl-D-aspartate glutamate receptor 1 in rat cortical membranes; type: cell membranes, Membrane
metric-name: Ki (µM)

O=C(O)C1=NN2C(=O)Nc3cc(Cl)c(Cl)cc3C2C1 (centres undefined)	0.19
O=C(O)c1nc2c(=O)[nH]c3cc(Cl)c(-n4cnnc4)cc3n2n1	33.5
O=Cc1ccn(-c2cc3c(cc2Cl)nc(O)n2nc(C(=O)O)cc32)c1	8.2
CCOC(=O)c1cc2c3cc(-n4ccc(C=O)c4)c(Cl)cc3nc(O)n2n1	57

----------
molecular target: Glutamate receptor ionotropic, kainate (Rattus norvegicus) (UniProt P22756+Q01812+P42260+P42264+Q63273); assay: Percent Inhibition of specific [3H]KA binding to Ionotropic glutamate receptor in rat cortical membranes.; assay type: cell membranes; set-up: concentration or dose not given beside the values; settings: Membrane; concentration not given here
# key: entry, value: inhibition
metric-name: inhibition (%)

COC(=O)C1=NN2C(=O)Nc3cc(Cl)ccc3C2C1 (configuration not stated)	3
COC(=O)C1=NN2C(=O)Nc3cc(Cl)c(Cl)cc3C2C1 (configuration not stated)	9
CCOC(=O)c1cc2c3cc(-n4cnnc4)c(Cl)cc3nc(O)n2n1	38
CCOC(=O)c1cc2c3ccccc3nc(O)n2n1	12
CCOC(=O)c1cc2c3cc(N)ccc3nc(O)n2n1	30
CCOC(=O)c1cc2c3cc(-n4ccc(C=O)c4)c(Cl)cc3nc(O)n2n1	29
COC(=O)c1cc2c3cc(Cl)c(Cl)cc3nc(O)n2n1	10
